The listing below reports pIC50 for compounds tested on Glyceraldehyde-3-phosphate dehydrogenase (Oryctolagus cuniculus, UniProt P46406).
Sequence (P46406 whole entry): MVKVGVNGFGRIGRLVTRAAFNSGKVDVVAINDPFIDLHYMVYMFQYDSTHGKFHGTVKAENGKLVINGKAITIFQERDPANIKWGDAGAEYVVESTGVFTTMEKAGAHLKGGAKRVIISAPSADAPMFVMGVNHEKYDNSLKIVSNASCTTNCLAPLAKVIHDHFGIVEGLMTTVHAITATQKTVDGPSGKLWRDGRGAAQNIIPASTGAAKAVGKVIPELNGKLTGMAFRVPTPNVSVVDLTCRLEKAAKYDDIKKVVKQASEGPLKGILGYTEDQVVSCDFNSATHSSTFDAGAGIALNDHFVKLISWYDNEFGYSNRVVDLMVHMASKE
Structures can show the parent of a compound that is named as a salt.
Answer as the number alone; pIC50 is minus log10 of concentration in mol/L.

>>> quantitativereadout("CC(=O)OC1(N=O)CCCCC1 [1-NITROSOCYCLOHEXYL ACETATE]")
6.70
>>> quantitativereadout("CC(C)(C)C(=O)OC1(N=O)CCCCC1")
6.82

(Q) Input O=NC1(OC(=O)C(F)(F)F)CCCCC1 [1-NITROSOCYCLOHEXYL TRIFLUOROACETATE] , output reported pIC50.
(A) 6.17

(Q) Input [O-][N+]([O-])=NO [ANGELI'S SALT] , output reported pIC50.
(A) 6.40
